Values were extracted from patent US20230235040A1.

Target: T1, hu-IL-36β (human IL-36β, N-terminally truncated active form R5-E157) (human)
T1 construct: Purification tag cleaved off; Biotinylated where captured; also called hu-IL-36b
T1 chain: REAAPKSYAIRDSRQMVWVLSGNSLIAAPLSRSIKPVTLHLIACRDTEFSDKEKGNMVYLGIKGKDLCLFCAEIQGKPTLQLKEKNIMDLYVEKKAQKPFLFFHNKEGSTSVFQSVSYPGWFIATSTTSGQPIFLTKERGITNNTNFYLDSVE
Assay: SPR (Biacore), purified Fab, biotinylated hu-IL-36β captured
Property Name: Kd (nM)
One number for each entry, in nM.

Consider the following illustrative entries.
# Binder, Kd, nM
data = [
    ("mAb6_2.1 Fab (Fab, V domains shown, Purified Fab (Biacore, HaCat assay)) VH: ELQLQESGPGLVKPSETLSLTCTVSGGSITSTNYYWGWIRQPPGKGLEWIGNIDYTGSTYYNASLKSRVTISVDTSKNQFSLKLSSVTAADTAVYYCATGKYYETYLGFDVWGQGTLVTVSS VL: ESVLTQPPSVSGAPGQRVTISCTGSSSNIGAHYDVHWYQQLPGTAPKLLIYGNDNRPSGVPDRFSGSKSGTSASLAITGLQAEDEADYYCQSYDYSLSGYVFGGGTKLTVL", 3.5),
    ("mAb6_2.2 Fab (Fab, V domains shown, Purified Fab (Biacore, HaCat assay)) VH: ELQLQESGPGLVKPSETLSLTCTVSGGSITSSNAYWGWIRQPPGKGLEWIGSIDYTGSTAYNPSLKSRVTISVDTSKNQFSLKLSSVTAADTAVYYCAHGKYYETYLGFDVWGQGTLVTVSS VL: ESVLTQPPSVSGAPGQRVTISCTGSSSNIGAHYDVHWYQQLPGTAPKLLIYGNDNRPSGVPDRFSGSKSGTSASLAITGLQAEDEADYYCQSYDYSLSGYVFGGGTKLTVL", 2.55),
    ("mAb6_2.4 Fab (Fab, V domains shown, Purified Fab) VH: ELQLQESGPGLVKPSETLSLTCTVSGGSITASNYYWGWIRQPPGKGLEWIGSIDYTGSTYYNPSLKSRVTISVDTSKNQFSLKLSSVTAADTAVYYCATGKYYETYLGFDVWGQGTLVTVSS VL: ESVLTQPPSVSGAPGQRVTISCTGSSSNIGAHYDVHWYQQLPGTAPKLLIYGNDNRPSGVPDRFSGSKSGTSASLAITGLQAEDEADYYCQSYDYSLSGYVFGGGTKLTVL", 1.05),
]

Request: Entry under review: mAb6_2.3 Fab (Fab, V domains shown, Purified Fab (Biacore, HaCat assay)) VH: ELQLQESGPGLVKPSETLSLTCTVSGGSITASNYYWGWIRQPPGKGLEWIGSIDYTGSTYYNTSLKSRVTISVDTSKNQFSLKLSSVTAADTAVYYCATGKYYETYLGFDVWGQGTLVTVSS VL: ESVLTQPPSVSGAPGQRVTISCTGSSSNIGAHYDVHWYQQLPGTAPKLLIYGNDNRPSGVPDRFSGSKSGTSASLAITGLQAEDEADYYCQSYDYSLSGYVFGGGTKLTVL . Reported Kd?
Response: 1.62
